The measurements presented in this section are drawn from patent US5004593A.

Test: Phase I plasma and urine pharmacokinetics of intravenous HMM in Intralipid 10% (GC assay)
Format: in vivo, human (cancer patients)
Conditions: human, urine, iv; 24 h; read-out: 24 hour urinary recovery of parent drug
Description: Eighteen patients were treated on the one day every four weeks schedule and 28 patients were treated on the daily ×5 four weeks schedule. […] Tests done prior to entry into study included a history, physical examination and tumor measurement whenever possible, WBC count, hemoglobin, platelet count, chest x-ray, electrocardiogram, electroencephalogram, urine analysis, triglycerides, SGOT, and serum creatinine. […] Triglycerides were determined before and after each HMM treatment. […]
experimentalReadout: dose excreted at 24 h

[ask] // dose excreted at 24 h lookup, key: CN(C)c1nc(N(C)C)nc(N(C)C)n1 [HMM]
[reply] < 1%

###

Assay: Phase I plasma and urine pharmacokinetics of intravenous HMM in Intralipid 10% (GC assay)
Type: in vivo, human (cancer patients)
Conditions: human, plasma, iv; 540 mg/m^2 i.v., three-compartment open model; read-out: terminal half-life (converted)
experimentalReadout: half-life (min)
Write the answer as a number in min, unit excluded.

[ask] // half-life lookup, key: CN(C)c1nc(N(C)C)nc(N(C)C)n1
[reply] 624
